// provenance: paper PMC3445454

biological target: HLA-DR DRB4*01:01 (Homo sapiens, UniProt P01903+P13762, G164S); assay: biochemical; format: binding; conditions: read-out: Binding capacity/IC50 (nM) DRB4*01:01
Exercise: for every item that follows, state its recorded IC50.
State the answer as a number, implicitly in nM.

Give HLA-DR DRB4*01:01 (Homo sapiens, UniProt P01903+P13762, G164S) IC50 for CC[C@H](C)[C@H](NC(=O)CNC(=O)[C@H](CCCCN)NC(=O)[C@H](Cc1c[nH]cn1)NC(=O)[C@H](C)NC(=O)[C@@H]1CCCN1C(=O)[C@@H](NC(=O)[C@H](Cc1c[nH]c2ccccc12)NC(=O)[C@H](CO)NC(=O)[C@H](CC(C)C)NC(=O)[C@H](Cc1ccc(O)cc1)NC(=O)[C@@H](NC(=O)[C@H](CCCCN)NC(=O)[C@H](CCC(=O)O)NC(=O)[C@@H](N)CCCCN)C(C)C)C(C)C)C(=O)NCC(=O)NCC(=O)N[C@@H](CC(N)=O)C(=O)N[C@@H](CCC(=O)O)C(N)=O
57

Find IC50 (HLA-DR DRB4*01:01 (Homo sapiens, UniProt P01903+P13762, G164S)) for the entry CC(C)C[C@H](NC(=O)[C@H](CCCCN)NC(=O)[C@@H](NC(=O)[C@H](CC(C)C)NC(=O)[C@@H]1CCCN1C(=O)[C@@H]1CCCN1C(=O)[C@@H](NC(=O)[C@H](CC(N)=O)NC(=O)[C@@H](NC(=O)[C@H](Cc1ccccc1)NC(=O)[C@H](CCC(=O)O)NC(=O)[C@H](Cc1c[nH]c2ccccc12)NC(=O)[C@@H](N)CCC(=O)O)C(C)C)[C@@H](C)O)C(C)C)C(=O)N[C@@H](Cc1c[nH]c2ccccc12)C(=O)N[C@@H](Cc1ccc(O)cc1)C(N)=O
1420
